Target under test: Nluc-H1R (Homo sapiens, UniProt P35367)
Sequence (P35367 whole entry): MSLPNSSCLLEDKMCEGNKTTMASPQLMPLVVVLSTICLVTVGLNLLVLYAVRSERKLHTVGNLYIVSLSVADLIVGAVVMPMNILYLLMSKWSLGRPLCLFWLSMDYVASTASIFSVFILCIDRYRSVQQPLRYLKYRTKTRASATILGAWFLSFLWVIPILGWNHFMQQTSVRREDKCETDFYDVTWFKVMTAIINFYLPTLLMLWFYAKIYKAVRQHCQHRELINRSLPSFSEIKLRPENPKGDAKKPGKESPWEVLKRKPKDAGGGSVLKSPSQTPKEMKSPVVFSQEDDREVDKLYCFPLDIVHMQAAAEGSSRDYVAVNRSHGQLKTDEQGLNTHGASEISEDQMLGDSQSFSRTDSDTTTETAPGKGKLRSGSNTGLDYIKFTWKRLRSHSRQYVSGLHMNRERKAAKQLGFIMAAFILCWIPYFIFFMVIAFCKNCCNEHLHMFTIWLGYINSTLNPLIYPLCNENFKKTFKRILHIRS
Protocol notes: NanoBRET competition binding assay (displacement of 1) on Nluc-H1R expressing HEK293T cells
Condition details: displacement of 1 (25 nM, KD = 8 nM), whole HEK293T cells, Cheng–Prusoff; mean ± SEM, three experiments
Square brackets hold non-standard residues; d marks the D form. Peptide text beside a SMILES is read from it. * marks the point of attachment. Propanoyl(3-Pip(4-O-2-BnPh)) = O=C(CCN1CCC(Oc2ccccc2Cc2ccccc2)CC1)*
Test readout: pKi
Give bare numbers.

Example results:
CC(C)[C@H](NC(=O)CCN1CCC(Oc2ccccc2Cc2ccccc2)CC1)C(=O)N[C@@H](CO)C(=O)NCC(=O)N[C@H](Cc1ccccc1)C(N)=O [Compound 10a] ({Propanoyl(3-Pip(4-O-2-BnPh))}-VSG[dF]-NH2) | 6.80
CC(C)[C@H](NC(=O)CCN1CCC(Oc2ccccc2Cc2ccccc2)CC1)C(=O)N[C@@H](CO)C(=O)N[C@@H](CCCCN)C(=O)N[C@H](Cc1ccccc1)C(N)=O [Compound 10h] ({Propanoyl(3-Pip(4-O-2-BnPh))}-VSK[dF]-NH2) | 6.73
CC(C)[C@H](NC(=O)CCN1CCC(Oc2ccccc2Cc2ccccc2)CC1)C(=O)N[C@@H](C)C(=O)N[C@@H](C)C(=O)N[C@H](Cc1ccccc1)C(N)=O [Compound 8c] ({Propanoyl(3-Pip(4-O-2-BnPh))}-VAA[dF]-NH2) | 6.80
CC(C)[C@H](NC(=O)CCN1CCC(Oc2ccccc2Cc2ccccc2)CC1)C(=O)N[C@@H](CC(=O)O)C(=O)N[C@@H](C)C(=O)N[C@H](Cc1ccccc1)C(N)=O [Compound 9i] ({Propanoyl(3-Pip(4-O-2-BnPh))}-VDA[dF]-NH2) | 6.26
CC(C)[C@H](NC(=O)CCN1CCC(Oc2ccccc2Cc2ccccc2)CC1)C(=O)N[C@@H](Cc1cnc[nH]1)C(=O)N[C@@H](C)C(=O)N[C@H](Cc1ccccc1)C(N)=O [Compound 9g] ({Propanoyl(3-Pip(4-O-2-BnPh))}-VHA[dF]-NH2) | 6.16

query: Provide only the value of recorded pKi for C[C@H](NC(=O)CNC(=O)CCN1CCC(Oc2ccccc2Cc2ccccc2)CC1)C(=O)N[C@@H](C)C(=O)N[C@H](Cc1ccccc1)C(N)=O [Compound 8b] ({Propanoyl(3-Pip(4-O-2-BnPh))}-GAA[dF]-NH2)
result: 6.29

---

Target under test: Nluc-H1R (Homo sapiens, UniProt P35367)
Protocol notes: NanoBRET competition binding assay (displacement of 1) on Nluc-H1R expressing HEK293T cells
Condition details: displacement of 1 (25 nM, KD = 8 nM), whole HEK293T cells, Cheng–Prusoff
Square brackets hold non-standard residues; d marks the D form. Peptide text beside a SMILES is read from it. * marks the point of attachment. Propanoyl(3-Pip(4-O-2-BnPh)) = O=C(CCN1CCC(Oc2ccccc2Cc2ccccc2)CC1)*
Assign pKi to each entry below.
One number for each entry, as −log10 of the molar value.

C[C@H](NC(=O)[C@H](C)NC(=O)[C@H](CC(N)=O)NC(=O)CCN1CCC(Oc2ccccc2Cc2ccccc2)CC1)C(=O)N[C@H](Cc1ccccc1)C(N)=O [Compound 8g] ({Propanoyl(3-Pip(4-O-2-BnPh))}-NAA[dF]-NH2) | 6.25

From here, focus on the item given below.
query: Provide only the value of recorded pKi for C[C@H](NC(=O)CCN1CCC(Oc2ccccc2Cc2ccccc2)CC1)C(=O)N[C@@H](C)C(=O)N[C@@H](C)C(=O)N[C@H](Cc1ccccc1)C(N)=O [Compound 8a] ({Propanoyl(3-Pip(4-O-2-BnPh))}-AAA[dF]-NH2)
result: 6.04

---

Assign Kb to each entry below.
Target under test: human H1R (Homo sapiens, UniProt P35367)
Construct: expressed in transfected cells; host or cells: CHO cells
Protocol notes: Ca2+ mobilization assay on human H1R-expressing CHO cells
Type: cell-based
Condition details: Gaddum equation, shift in histamine EC25 with 1 μM antagonist; mean ± SEM, four experiments; read-out: pKB (converted)
Square brackets hold non-standard residues; d marks the D form. Peptide text beside a SMILES is read from it. * marks the point of attachment. X1 = O=C(COc1ccc(/C=C/C2=[N+]3C(=Cc4ccc(-c5cccs5)n4[B-]3(F)F)C=C2)cc1)*; Propanoyl(3-Pip(4-O-2-BnPh)) = O=C(CCN1CCC(Oc2ccccc2Cc2ccccc2)CC1)*; X3 = Cc1cc(C)n2c1C=C1C=CC(/C=C/c3ccc(OCC(=O)*)cc3)=[N+]1[B-]2(F)F; BODIPY(FL) = CC1=CC(C)=[N+]2C1=Cc1ccc(CCC(=O)*)n1[B-]2(F)F; βAla = NCCC(=O)O
Answers are plain numbers, in nM.

Example results:
Cc1cc(C)n2c1C=C1C=CC(/C=C/c3ccc(OCC(=O)NCCCC[C@H](NC(=O)CCNC(=O)[C@H](CC(N)=O)NC(=O)[C@H](CO)NC(=O)[C@@H](NC(=O)CCN4CCC(Oc5ccccc5Cc5ccccc5)CC4)C(C)C)C(N)=O)cc3)=[N+]1[B-]2(F)F [Compound 38b] ({Propanoyl(3-Pip(4-O-2-BnPh))}-VSN[βAla]K(X3)-NH2) | 110
CC(C)[C@H](NC(=O)CCN1CCC(Oc2ccccc2Cc2ccccc2)CC1)C(=O)N[C@@H](CO)C(=O)N[C@@H](CC(N)=O)C(=O)NCCC(=O)N[C@@H](CCCCNC(=O)COc1ccc(/C=C/C2=[N+]3C(=Cc4ccc(-c5cccs5)n4[B-]3(F)F)C=C2)cc1)C(N)=O [Compound 31a] ({Propanoyl(3-Pip(4-O-2-BnPh))}-VSN[βAla]K(X1)-NH2) | 2.75

query: Provide only the value of recorded Kb for Cc1cc(C)n2c1C=C1C=CC(CCC(=O)NCCCC[C@H](NC(=O)CCNC(=O)[C@H](C)NC(=O)[C@H](C)NC(=O)[C@H](Cc3ccccc3)NC(=O)CCN3CCC(Oc4ccccc4Cc4ccccc4)CC3)C(N)=O)=[N+]1[B-]2(F)F [Compound 39d] ({Propanoyl(3-Pip(4-O-2-BnPh))}-FAA[βAla]K(BODIPY(FL))-NH2)
result: 34.7

---

Target under test: Nluc-H1R (Homo sapiens, UniProt P35367)
Protocol notes: NanoBRET competition binding assay (displacement of 1) on Nluc-H1R expressing HEK293T cells
Condition details: displacement of 1 (25 nM, KD = 8 nM), whole HEK293T cells, Cheng–Prusoff
Square brackets hold non-standard residues; d marks the D form. Peptide text beside a SMILES is read from it. * marks the point of attachment. Propanoyl(3-Pip(4-O-2-BnPh)) = O=C(CCN1CCC(Oc2ccccc2Cc2ccccc2)CC1)*
Assign pKi to each entry below.
Numbers only, as −log10 of the molar value.

C[C@H](NC(=O)CNC(=O)CCN1CCC(Oc2ccccc2Cc2ccccc2)CC1)C(=O)N[C@@H](C)C(=O)N[C@H](Cc1ccccc1)C(N)=O [Compound 8b] ({Propanoyl(3-Pip(4-O-2-BnPh))}-GAA[dF]-NH2) | 6.29
CC(C)[C@H](NC(=O)CCN1CCC(Oc2ccccc2Cc2ccccc2)CC1)C(=O)N[C@@H](CO)C(=O)N[C@@H](Cc1ccc(O)cc1)C(=O)N[C@H](Cc1ccccc1)C(N)=O [Compound 10d] ({Propanoyl(3-Pip(4-O-2-BnPh))}-VSY[dF]-NH2) | 7.02
CC(C)[C@H](NC(=O)CCN1CCC(Oc2ccccc2Cc2ccccc2)CC1)C(=O)N[C@@H](CO)C(=O)NCC(=O)N[C@H](Cc1ccccc1)C(N)=O [Compound 10a] ({Propanoyl(3-Pip(4-O-2-BnPh))}-VSG[dF]-NH2) | 6.80

From here, focus on the item given below.
query: Provide only the value of recorded pKi for CC(C)[C@H](NC(=O)CCN1CCC(Oc2ccccc2Cc2ccccc2)CC1)C(=O)N[C@@H](CO)C(=O)N[C@@H](CO)C(=O)N[C@H](Cc1ccccc1)C(N)=O [Compound 10e] ({Propanoyl(3-Pip(4-O-2-BnPh))}-VSS[dF]-NH2)
result: 6.47

---

Target under test: Nluc-H1R (Homo sapiens)
Protocol notes: NanoBRET saturation binding assay on Nluc-H1R expressing HEK293T cells
Set-up: expressed in transfected cells
Condition details: saturation binding curves, whole HEK293T cells
Square brackets hold non-standard residues; d marks the D form. Peptide text beside a SMILES is read from it. * marks the point of attachment. X1 = O=C(COc1ccc(/C=C/C2=[N+]3C(=Cc4ccc(-c5cccs5)n4[B-]3(F)F)C=C2)cc1)*; Propanoyl(3-Pip(4-O-2-BnPh)) = O=C(CCN1CCC(Oc2ccccc2Cc2ccccc2)CC1)*; X2 = O=C(CCC1=[N+]2C(=Cc3ccc(-c4cccs4)n3[B-]2(F)F)C=C1)*; βAla = NCCC(=O)O
Assign Kd to each entry below.
Numbers only, in nM.

Example results:
CC(C)[C@H](NC(=O)CCN(C)CC/C=C1\c2ccccc2COc2ccccc21)C(=O)N[C@@H](CO)C(=O)N[C@@H](CC(N)=O)C(=O)NCCC(=O)N[C@@H](CCCn1cc(COc2ccc(/C=C/C3=[N+]4C(=Cc5ccc(-c6cccs6)n5[B-]4(F)F)C=C3)cc2)nn1)C(N)=O [Compound 28c] | 19
C[C@H](NC(=O)[C@H](C)NC(=O)[C@H](Cc1ccccc1)NC(=O)CCN1CCC(Oc2ccccc2Cc2ccccc2)CC1)C(=O)NCCC(=O)N[C@@H](CCCCNC(=O)COc1ccc(/C=C/C2=[N+]3C(=Cc4ccc(-c5cccs5)n4[B-]3(F)F)C=C2)cc1)C(N)=O [Compound 31k] ({Propanoyl(3-Pip(4-O-2-BnPh))}-FAA[βAla]K(X1)-NH2) | 12

From here, focus on the item given below.
query: Provide only the value of recorded Kd for C[C@H](NC(=O)[C@H](C)NC(=O)[C@H](Cc1ccccc1)NC(=O)CCN1CCC(Oc2ccccc2Cc2ccccc2)CC1)C(=O)NCCC(=O)N[C@@H](CCCCNC(=O)CCC1=[N+]2C(=Cc3ccc(-c4cccs4)n3[B-]2(F)F)C=C1)C(N)=O [Compound 39c] ({Propanoyl(3-Pip(4-O-2-BnPh))}-FAA[βAla]K(X2)-NH2)
result: 724
